Source: patent US20090048258A1

So I've got a bunch of compounds here, and I need their IC50 values.
biological target: Human DGAT1 (Homo sapiens); construct: my translation of the primer: M-G-DYKDDDD-GDRGSSRRR) (N); made in house; host or cells: Sf9 insect cells (recombinant baculovirus BAC-DGAT1, pFASTBAC1); microsome fraction; experiment: DGAT inhibitory activity: [14C]-triglyceride synthesis by DGAT1 high expression Sf9 microsome; type: biochemical; conditions: Table 2, 25 μM dioleoylglycerol, 25 μM [14C]-Oleoyl-CoA, 32° C., 15 min, read-out: DGAT inhibitory activity (according to IC50)
Sequence (O75907 whole entry): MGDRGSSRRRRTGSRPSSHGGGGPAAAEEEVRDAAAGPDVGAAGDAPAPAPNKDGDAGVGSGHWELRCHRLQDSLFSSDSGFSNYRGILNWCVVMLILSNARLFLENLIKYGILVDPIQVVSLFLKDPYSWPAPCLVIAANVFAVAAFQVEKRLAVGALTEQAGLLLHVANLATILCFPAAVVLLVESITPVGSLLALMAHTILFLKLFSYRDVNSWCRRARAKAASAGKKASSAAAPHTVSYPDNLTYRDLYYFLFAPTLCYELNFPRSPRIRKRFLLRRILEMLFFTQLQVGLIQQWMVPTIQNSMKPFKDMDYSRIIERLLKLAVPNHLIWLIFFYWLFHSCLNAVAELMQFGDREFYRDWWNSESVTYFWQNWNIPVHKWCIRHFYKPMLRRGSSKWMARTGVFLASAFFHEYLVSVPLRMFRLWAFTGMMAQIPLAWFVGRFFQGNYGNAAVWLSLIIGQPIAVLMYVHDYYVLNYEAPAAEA

Solved entries:
[
  {
    "SMILES STRUCTURE": "CCOc1ccc(C(=O)CCC(=O)Nc2cc(-c3ccc(C(=O)O)cc3)cc(-c3ccccc3)n2)cc1OCC",
    "IC50": "500 to 10000 nM"
  },
  {
    "SMILES STRUCTURE": "O=C(CCC(=O)c1ccc2c(c1)OCCCO2)Nc1nc(-c2ccccc2)c(Cc2ccccc2)s1",
    "IC50": "10 to 50 nM"
  }
]

Batch request: IC50 per item, same order as input.
1. O=C(CCC(=O)c1ccc2c(c1)CCO2)Nc1cc(-c2cccc(O)c2)cc(-c2ccccc2)n1
2. O=C(O)CCc1cccc(-c2cc(NC(=O)CCC(=O)c3ccc4c(c3)CCO4)nc(-c3ccccc3)c2)c1

A:
1. 10 to 50 nM
2. 500 to 10000 nM
